Numbers sourced from PubChem BioAssay (NCI).

Could you please report measured TGI for the items listed next?
System: 786-0 renal
Assay: NCI tumour cell line growth inhibition, 48 h
The reply should be a number in µM, with the unit left off.

Query: Fill in the recorded TGI for this compound, with 786-0 renal as test system: Cc1cc(C)nc(NS(=O)(=O)c2ccc(Nc3nncc(=O)n3N)cc2)n1
Response: 29.2

Query: Fill in the recorded TGI for this compound, with 786-0 renal as test system: O=C1C=CC2(O[C@H](c3ccccc3)[C@@H](c3ccccc3)O2)C(SC(=O)c2ccccc2)C1 (some centres undefined)
Response: 1.76

Query: Fill in the recorded TGI for this compound, with 786-0 renal as test system: Cc1cc(NS(=O)(=O)c2ccc(N=Nc3cc(N=Nc4ccc(S(=O)(=O)Nc5cc(C)nc(C)n5)cc4)c4c(NC(=O)C(Cl)Cl)cccc4c3OC(=O)C(Cl)Cl)cc2)nc(C)n1 (tested in a mixture with another compound)
Response: 35.9

Query: Fill in the recorded TGI for this compound, with 786-0 renal as test system: Cn1ccnc1C(=O)/C=C/c1ccc(C(=O)Nc2ccc(Cl)cc2)cc1
Response: 1.82

Query: Fill in the recorded TGI for this compound, with 786-0 renal as test system: O=S1c2ccccc2N=C(c2ccc3ccccc3c2)CC1C1=CC=CCC1 (centres undefined)
Response: 29.8

Query: Fill in the recorded TGI for this compound, with 786-0 renal as test system: O=[N+]([O-])C(Cl)C(Cl)C(Cl)=C(Cl)Cl (centres undefined)
Response: 22.3

Query: Fill in the recorded TGI for this compound, with 786-0 renal as test system: COc1cccc(C2c3cc4c(cc3OC(C)(O)C2C)OCO4)c1O (centres undefined)
Response: 68.5

Query: Fill in the recorded TGI for this compound, with 786-0 renal as test system: CC[C@@H](C(=O)[C@@H](C)[C@@H](O)[C@H](C)[C@@H]1O[C@@H]([C@@H](CC)C(=O)O)CC[C@@H]1C)C1O[C@]2(C=CC(=O)[C@]3(CC[C@@](C)([C@H]4CC[C@](O)(CC)[C@H](C)O4)O3)O2)[C@H](C)C[C@@H]1C (some centres undefined)
Response: 14.5

Query: Fill in the recorded TGI for this compound, with 786-0 renal as test system: O=C(Nc1ccccc1O)c1cccc(NC2=C(Cl)C(=O)N(Cc3ccccc3)C2=O)c1
Response: 6.78
